# credit: patent US9067935B2

Target desc: canine TRPM8 (Canis lupus familiaris)
Sequence (Q1A7N1 1-1104): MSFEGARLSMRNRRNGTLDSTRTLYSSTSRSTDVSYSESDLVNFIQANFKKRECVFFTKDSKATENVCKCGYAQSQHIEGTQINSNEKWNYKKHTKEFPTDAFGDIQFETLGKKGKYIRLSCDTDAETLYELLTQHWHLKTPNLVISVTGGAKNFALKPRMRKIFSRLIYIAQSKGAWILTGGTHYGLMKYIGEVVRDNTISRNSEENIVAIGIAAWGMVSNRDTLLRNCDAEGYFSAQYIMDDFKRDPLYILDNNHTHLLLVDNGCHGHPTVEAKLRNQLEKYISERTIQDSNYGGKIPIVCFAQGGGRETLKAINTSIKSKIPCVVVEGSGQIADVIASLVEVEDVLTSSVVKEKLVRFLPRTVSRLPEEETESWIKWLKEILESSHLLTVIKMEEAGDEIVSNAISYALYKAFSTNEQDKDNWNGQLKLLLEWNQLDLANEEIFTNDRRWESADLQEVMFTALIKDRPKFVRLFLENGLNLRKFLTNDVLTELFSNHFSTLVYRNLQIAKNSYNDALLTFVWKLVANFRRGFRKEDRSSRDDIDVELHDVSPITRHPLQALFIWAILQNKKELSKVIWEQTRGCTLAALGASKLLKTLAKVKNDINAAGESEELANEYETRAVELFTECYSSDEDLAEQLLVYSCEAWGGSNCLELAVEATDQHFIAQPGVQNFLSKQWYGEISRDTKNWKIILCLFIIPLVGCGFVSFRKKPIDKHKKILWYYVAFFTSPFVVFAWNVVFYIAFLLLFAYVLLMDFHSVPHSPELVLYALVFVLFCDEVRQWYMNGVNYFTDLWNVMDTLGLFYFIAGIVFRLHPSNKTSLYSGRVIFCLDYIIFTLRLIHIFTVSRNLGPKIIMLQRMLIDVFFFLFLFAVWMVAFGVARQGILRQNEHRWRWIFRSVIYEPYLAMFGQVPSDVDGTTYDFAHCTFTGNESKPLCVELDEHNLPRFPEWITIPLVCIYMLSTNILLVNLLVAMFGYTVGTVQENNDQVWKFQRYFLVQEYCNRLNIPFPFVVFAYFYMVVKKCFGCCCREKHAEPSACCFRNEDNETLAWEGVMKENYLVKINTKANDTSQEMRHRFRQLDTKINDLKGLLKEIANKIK
Assay explanation: In Vitro Canine TRPM8 Functional Assay (intracellular Ca2+ fluorescence, icilin challenge)
Format: cell-based
Reported conditions: HEK293, read-out: % Inh (%) @ 0.2 μM
Quantity: inhibition at 0.2 µM (%)
Give just the number in %; leave the unit off.

Compound: Cc1c(N(Cc2ccc(OC(F)(F)F)cc2)S(=O)(=O)c2ccc(C(=O)O)cc2)nc2ccc(Cl)cn12 [Compound 113]
inhibition at 0.2 µM (%): 102

In: What value of inhibition at 0.2 µM has been recorded for this entry: O=C(O)c1ccc(S(=O)(=O)N(Cc2ccc(OC(F)(F)F)cc2)c2nc3ccccn3c2Cl)cc1 [Compound 6]
Out: 102

In: Could you tell me which inhibition at 0.2 µM is on file for Cc1c(N(Cc2ccc(F)c(F)c2)S(=O)(=O)c2ccc(C(=O)O)cc2)nc2ccc(Cl)cn12 [Compound 114] ?
Out: 38

In: What does the data say about its inhibition at 0.2 µM? Entry: Cc1c(N(Cc2ccc(OC(F)(F)F)cc2)S(=O)(=O)c2ccc(C(=O)O)cc2)nc2ccc(F)cn12 [Compound 120]
Out: 102

In: For the compound Cc1c(N(Cc2ccc(F)c(C(F)(F)F)c2)S(=O)(=O)c2ccc(C(=O)O)cc2)nc2ccc(Cl)cn12 [Compound 115] , what inhibition at 0.2 µM is on record?
Out: 96

In: // lookup inhibition at 0.2 µM for Cc1c(N(Cc2ccc(F)c(C(F)(F)F)c2)S(=O)(=O)c2ccc(C(=O)O)cc2)nc2ccc(F)cn12 [Compound 121]
Out: 101

###

Target desc: canine TRPM8 (Canis lupus familiaris)
Assay explanation: In Vitro Canine TRPM8 Functional Assay (intracellular Ca2+ fluorescence, icilin challenge)
Type: cell-based
Reported conditions: HEK293 cells stably expressing canine TRPM8; icilin at ~80% maximal response
Quantity: pIC50
Note on pIC50: it is the negative log10 of concentration, concentration in mol/L.

Input smiles: Cc1c(N(Cc2ccc(F)c(C(F)(F)F)c2)S(=O)(=O)c2ccccc2)nc2ccc(F)cn12
Target desc: canine TRPM8 (Canis lupus familiaris)
pIC50: 8.00
//
Input smiles: Cc1cccc2nc(N(Cc3ccc(C(F)(F)F)c(F)c3)S(=O)(=O)c3ccccc3)c(C)n12
Target desc: canine TRPM8 (Canis lupus familiaris)
pIC50: 7.88
//
Input smiles: O=S(=O)(c1ccccc1)N(Cc1ccc(OC(F)(F)F)cc1)c1cn2ccccc2n1
Target desc: canine TRPM8 (Canis lupus familiaris)
pIC50: 7.31

In: Param item = "O=S(=O)(c1ccccc1)N(Cc1ccc(OC(F)(F)F)cc1)c1nc2ccccn2c1Br" ; retrieve measured pIC50.
Out: 8.28

In: Looking for the measured pIC50 of "O=S(=O)(c1ccccc1)N(Cc1ccc(F)c(F)c1)c1nc2ccc(Cl)cn2c1Cl" , can you help?
Out: 7.10

In: Which pIC50 value is on record for "CC(C)c1c(N(Cc2ccc(F)c(C(F)(F)F)c2)S(=O)(=O)c2ccccc2)nc2ccccn12" ?
Out: 7.91

In: Fill blank: measured pIC50 of the compound "Cc1ccc2nc(N(Cc3ccc(OC(F)(F)F)cc3)S(=O)(=O)c3ccccc3)c(C)n2c1" is ____.
Out: 7.54

In: pIC50 for "CCc1c(N(Cc2ccc(C(F)(F)F)c(F)c2)S(=O)(=O)c2ccc(-n3cccn3)cc2)nc2ccc(Cl)cn12" ?
Out: 7.38

###

Target desc: canine TRPM8 (Canis lupus familiaris)
Assay explanation: In Vitro Canine TRPM8 Functional Assay (intracellular Ca2+ fluorescence, icilin challenge)
Reported conditions: HEK293 cells stably expressing canine TRPM8; icilin at ~80% maximal response
Quantity: log10 of IC50 (log10 of the value in nM)
# values: log10(IC50), units nM

Consider the worked cases shown below.
Compound: CCc1c(N(Cc2ccc(C(F)(F)F)cc2)S(=O)(=O)c2ccccc2)nc2c(C(F)(F)F)cccn12 [Compound 58]
Observed: 1.85

Compound: O=S(=O)(c1ccc(N2CCOCC2)nc1)N(Cc1ccc(C(F)(F)F)cc1)c1nc2ccccn2c1Cl [Compound 93]
Observed: 1.43

Compound: COC(=O)c1ccc(S(=O)(=O)N(Cc2ccc(F)c(C(F)(F)F)c2)c2nc3ccc(F)cn3c2C)cc1 [Compound 119]
Observed: 1.38

Compound: O=S(=O)(c1ccccc1)N(Cc1ccc(F)c(C(F)(F)F)c1)c1nc2ccccn2c1Cl [Compound 1]
Observed: 0.51

Compound: Cc1ccn2c(C)c(N(Cc3ccc(OC(F)(F)F)cc3)S(=O)(=O)c3ccc(F)cc3)nc2c1 [Compound 67]
Observed: 1.79

Compound: O=S(=O)(c1ccc(-n2cccn2)cc1)N(Cc1ccc(OC(F)(F)F)cc1)c1nc2ccccn2c1Cl [Compound 97]
Observed: 0.93

Now consider a different compound.
In: Form: Entry = O=S(=O)(c1ccc(-n2cccn2)cc1)N(Cc1ccc(C(F)(F)F)cc1)c1nc2ccccn2c1Cl [Compound 98] | System = canine TRPM8 (Canis lupus familiaris) | log10 of IC50 = ____
Out: 0.61

###

Target desc: UniProt:Q1A7N1
Assay explanation: In Vitro Canine TRPM8 Functional Assay (intracellular Ca2+ fluorescence, icilin challenge)
Reported conditions: HEK293 cells stably expressing canine TRPM8; icilin at ~80% maximal response
# if measured IC50 < 10 nM: Met  # else: Not met

For orientation, consider the following solved cases.
Compound: CC(C)c1c(N(Cc2ccc(C(F)(F)F)c(F)c2)S(=O)(=O)c2ccccc2)nc2ccccn12 [Compound 51]
Assigned label: Met

Compound: Cc1cccn2c(C)c(N(Cc3ccc(F)c(C(F)(F)F)c3)S(=O)(=O)c3ccccc3)nc12 [Compound 31]
Assigned label: Not met

Compound: O=S(=O)(c1ccc(N2CCOCC2)nc1)N(Cc1ccc(OC(F)(F)F)cc1)c1nc2ccccn2c1Br [Compound 84]
Assigned label: Not met

Compound: Cc1cccc2nc(N(Cc3ccc(F)c(C(F)(F)F)c3)S(=O)(=O)c3ccccc3)c(C)n12 [Compound 48]
Assigned label: Not met

Compound: CC(C)c1c(N(Cc2ccc(OC(F)(F)F)cc2)S(=O)(=O)c2ccc(C(=O)[O-])cc2)nc2ccccn12.[Na+] [Compound 109]
Assigned label: Met

In: In the record for O=S(=O)(c1ccc(N2CCOCC2)nc1)N(Cc1ccc(F)c(C(F)(F)F)c1)c1nc2ccccn2c1Cl [Compound 90] , is IC50 less than 10 nM?
Out: Not met

In: Does this compound meet the criterion IC50 < 10 nM? COC(=O)c1ccc(S(=O)(=O)N(Cc2ccc(OC(F)(F)F)cc2)c2nc3ccc(Cl)cn3c2C)cc1 [Compound 110]
Out: Not met

###

Reported inhibition at 0.2 µM values for a set of molecules
Target desc: canine TRPM8 (Canis lupus familiaris)
Assay explanation: In Vitro Canine TRPM8 Functional Assay (intracellular Ca2+ fluorescence, icilin challenge)
Assay type: cell-based
Reported conditions: HEK293, @ 0.2 μM; HEK293 cells stably expressing canine TRPM8; read-out: % Inh (%) @ 0.2 μM
Please format your answer as a value with the unit trailing.

Sample records with inhibition at 0.2 µM:
Input smiles: O=S(=O)(c1ccc(-n2cccn2)cc1)N(Cc1ccc(OC(F)(F)F)cc1)c1nc2ccccn2c1Br
Observed: 100%
//
Input smiles: Cc1ccn2c(C)c(N(Cc3ccc(C(F)(F)F)c(F)c3)S(=O)(=O)c3ccccc3)nc2c1
Observed: 100%
//
Input smiles: Cc1c(N(Cc2ccc(OC(F)(F)F)cc2)S(=O)(=O)c2ccc(-n3cccn3)cc2)nc2ccc(Cl)cn12
Observed: 93%
//
Input smiles: O=S(=O)(c1ccccc1)N(Cc1ccc(F)c(C(F)(F)F)c1)c1nc2ccc(Cl)cn2c1Cl
Observed: 97%
//
Input smiles: Cc1ccc2nc(N(Cc3ccc(C(F)(F)F)c(F)c3)S(=O)(=O)c3ccccc3)c(C)n2c1
Observed: 100%

In: For the record "CCc1c(N(Cc2cccc(C(F)(F)F)c2)S(=O)(=O)c2ccccc2)nc2c(C(F)(F)F)cccn12" , what value of inhibition at 0.2 µM is listed for canine TRPM8 (Canis lupus familiaris)?
Out: 97%

In: Lab note: need inhibition at 0.2 µM with canine TRPM8 (Canis lupus familiaris) for entry "Cc1cccn2c(C)c(N(Cc3ccc(OC(F)(F)F)cc3)S(=O)(=O)c3ccccc3)nc12" , please look it up.
Out: 100%

In: Query inhibition at 0.2 µM on canine TRPM8 (Canis lupus familiaris) for "O=S(=O)(c1ccccc1)N(Cc1ccc(OC(F)(F)F)cc1)c1nc2ccc(C(F)(F)F)cn2c1Cl"
Out: 47%

In: Query inhibition at 0.2 µM on canine TRPM8 (Canis lupus familiaris) for "CC(C)c1c(N(Cc2ccc(C(F)(F)F)c(F)c2)S(=O)(=O)c2ccccc2)nc2ccccn12"
Out: 101%

In: Write down the reported inhibition at 0.2 µM of "COC(=O)c1ccc(S(=O)(=O)N(Cc2ccc(OC(F)(F)F)cc2)c2nc3ccccn3c2Cl)cc1" , test system: canine TRPM8 (Canis lupus familiaris).
Out: 102%

In: Enter reported inhibition at 0.2 µM observed with canine TRPM8 (Canis lupus familiaris) for "Cc1ccn2c(C)c(N(Cc3ccc(OC(F)(F)F)cc3)S(=O)(=O)c3ccccc3)nc2c1"
Out: 100%

In: What reported inhibition at 0.2 µM corresponds to "Cc1ccn2c(C)c(N(Cc3ccc(F)c(C(F)(F)F)c3)S(=O)(=O)c3ccccc3)nc2c1" on canine TRPM8 (Canis lupus familiaris)?
Out: 100%

In: Please provide the recorded inhibition at 0.2 µM for "O=S(=O)(c1ccccc1)N(Cc1cccc(C(F)(F)F)c1)c1nc2ccccn2c1C1CC1" , tested on canine TRPM8 (Canis lupus familiaris).
Out: 100%

In: inhibition at 0.2 µM of "CCc1c(N(Cc2ccc(F)c(C(F)(F)F)c2)S(=O)(=O)c2ccccc2)nc2ccc(Cl)cn12" on canine TRPM8 (Canis lupus familiaris)?
Out: 100%

In: Checklist item: inhibition at 0.2 µM tested on canine TRPM8 (Canis lupus familiaris), entry "O=S(=O)(c1ccc(N2CCOCC2)nc1)N(Cc1ccc(OC(F)(F)F)cc1)c1nc2ccc(Cl)cn2c1Cl" , value?
Out: 72%
